Target Of Assay: Mushroom tyrosinase (Agaricus bisporus, UniProt O42713+Q00024+C7FF04+C7FF05)
Procedure Summary: Inhibition of mushroom tyrosinase using L-DOPA as substrate preincubated for 10 mins followed by substrate addition and measured after 20 mins
Measured Metric: IC50

Worked set:
{"Entry Smiles": "COc1ccccc1-n1c(SCC(=O)Nc2ccc(I)cc2)nnc1-c1ccccc1F", "Result": "60 nM"}
{"Entry Smiles": "COc1ccccc1-n1c(SCC(=O)Nc2ccc(Br)cc2)nnc1-c1ccccc1", "Result": "4.8 nM"}
{"Entry Smiles": "CCCCn1c(SCC(=O)Nc2ccc(F)cc2)nnc1-c1ccccc1", "Result": "370 nM"}
{"Entry Smiles": "COc1ccccc1-n1c(SCC(=O)Nc2ccc(I)cc2)nnc1-c1ccccc1", "Result": "650 nM"}

Here's the next entry for you.
The value of IC50 measured for the compound "COc1ccccc1-n1c(SCC(=O)Nc2ccc(Br)cc2)nnc1-c1ccccc1F" turned out to be 150 nM

---

Target Of Assay: Mushroom tyrosinase (Agaricus bisporus, UniProt O42713+Q00024+C7FF04+C7FF05)
Procedure Summary: Inhibition of mushroom tyrosinase using L-DOPA as substrate preincubated for 10 mins followed by substrate addition and measured after 20 mins by absorbance based analysis
IC50 strictly less than 0.08 µM = 1.0. Otherwise 0.0.

Q. A record lists "CCc1ccc(NC(=O)CSc2nnc(Cc3csc(N)n3)n2-c2ccccc2)cc1" . Is its IC50 below 0.08 µM?
A. 0.0

Q. A record lists COc1cccc(OC)c1C1=NC(=S)C(c2nn[nH]n2)C(=O)O1 (configuration not stated) . Is its IC50 below 0.08 µM?
A. 0.0

Q. A record lists "Cc1ccc(NC(=O)CSc2nnc(Cc3csc(N)n3)n2-c2ccccc2)c(C)c1" . Is its IC50 below 0.08 µM?
A. 1.0

Q. A record lists "O=C1C=C(Cn2cc(COc3ccc4ccccc4c3)nn2)C(=O)C=C1O" . Is its IC50 below 0.08 µM?
A. 0.0

Q. A record lists Cc1ccc(C2=NC(=S)C(c3nn[nH]n3)C(=O)O2)cc1 (configuration not stated) . Is its IC50 below 0.08 µM?
A. 0.0

Q. A record lists "COc1cc(OC)cc(OCc2cn(CC3=CC(=O)C(O)=CC3=O)nn2)c1" . Is its IC50 below 0.08 µM?
A. 0.0

Q. A record lists "O=C1C=C(Cn2cc(COc3cccc4ccccc34)nn2)C(=O)C=C1O" . Is its IC50 below 0.08 µM?
A. 1.0

Q. A record lists "Cc1ccc(C)c(NC(=O)CSc2nnc(Cc3csc(N)n3)n2-c2ccccc2)c1" . Is its IC50 below 0.08 µM?
A. 1.0

Q. A record lists O=C1OC(c2ccc(Cl)cc2)=NC(=S)C1c1nn[nH]n1 (configuration not stated) . Is its IC50 below 0.08 µM?
A. 0.0

Q. A record lists "Nc1nc(Cc2nnc(SCC(=O)NCCc3ccccc3)n2-c2ccccc2)cs1" . Is its IC50 below 0.08 µM?
A. 1.0

---

Target Of Assay: Mushroom tyrosinase (Agaricus bisporus, UniProt O42713+Q00024+C7FF04+C7FF05)
Procedure Summary: Inhibition of mushroom tyrosinase using L-DOPA as substrate preincubated for 20 mins followed by substrate addition by absorbance based analysis
IC50 strictly less than 500 nM = True. Otherwise False.

// known answers, use as guide
{"Entry Smiles": "COc1ccc(NC(=O)Cn2cc(COc3ccc(/C=N/NC(N)=S)cc3)nn2)cc1", "Category": "False"}
{"Entry Smiles": "NC(=S)N/N=C/c1ccc(OCc2cn(CC(=O)Nc3ccc([N+](=O)[O-])cc3)nn2)cc1", "Category": "False"}
{"Entry Smiles": "COc1cccc(NC(=O)Cn2cc(COc3ccc(/C=N/NC(N)=S)cc3)nn2)c1", "Category": "False"}
{"Entry Smiles": "NC(=S)N/N=C/c1ccc(OCc2cn(CC(=O)NCc3ccccc3)nn2)cc1", "Category": "True"}
{"Entry Smiles": "NC(=S)N/N=C/c1ccc(OCc2cn(CC(=O)Nc3ccc(Cl)cc3)nn2)cc1", "Category": "True"}

Q. A record lists "Cc1c(NC(=O)Cn2cc(COc3ccc(/C=N/NC(N)=S)cc3)nn2)cccc1[N+](=O)[O-]" . Is its IC50 below 500 nM?
A. False

Q. A record lists "NC(=S)N/N=C/c1ccc(OCc2cn(CC(=O)Nc3cccc(Br)c3)nn2)cc1" . Is its IC50 below 500 nM?
A. True
